test_protocol: NCI Yeast Anticancer Drug Screen. Data for the cln2 rad14 strain (AID 165);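 note: 0% = growth equal to vehicle treated cultures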
details: S. cerevisiae cln2 rad14 strain, at 50.0 µM (retest, dose inferred, filed as 5.0), active compounds read high
This is part of a sample that, as a whole, favours compounds with a hit. Of some 79,000 tested, about 15% had one in any assay.
property_name: growth inhibition (%)

[[record]]
compound = "CC1/C=C/C=C/CC/C=C/C=C/C=C/C=C/C(OC2OC(C)C(O)C(N)C2O)CC2OC(CC(O)C(O)CCC(O)CC(O)CC(O)CC(=O)OC(C)C(C)C1O)CC(O)C2C(=O)O (stereo not given)"
property_name = "growth inhibition"
value_observed = 100

[[record]]
compound = "CC(/C=C/C(O)=C1/C(=O)CNC1=O)=C\\[C@@H](C)[C@H]1O[C@@]2(C)O[C@H](C(=O)[C@@H]3O[C@@]32C)[C@@H]1C"
property_name = "growth inhibition"
value_observed = 95

[[record]]
compound = "O=[N+]([O-])c1ncn(C2OC(CO)C(O)C2O)c1S (stereo not given)"
property_name = "growth inhibition"
value_observed = -5

[[record]]
compound = "CCCCC(CC)CNc1ncnc2c1cnn2C (stereo not given)"
property_name = "growth inhibition"
value_observed = 89

[[record]]
compound = "CCOC(=O)OC(=S)N(C1CCCCC1)C1CCCCC1"
property_name = "growth inhibition"
value_observed = 58

[[record]]
compound = "CCN(CC)CCCCNc1ccc(Cl)cc1"
property_name = "growth inhibition"
value_observed = -3

[[record]]
compound = "COc1cccc2c1[n+]([O-])c1cccc(O)c1[n+]2[O-]"
property_name = "growth inhibition"
value_observed = 99

[[record]]
compound = "C(=C\\c1cnnc2ccccc12)/c1ccco1"
property_name = "growth inhibition"
value_observed = 31

[[record]]
compound = "CCC1(CC)COC(C)(C(=O)O)OC1"
property_name = "growth inhibition"
value_observed = -77

[[record]]
compound = "COC(=O)CCC(=O)NCCc1ccc2c([nH]c3ccccc32)c1C"
property_name = "growth inhibition"
value_observed = -7

